Tested System: KGF (hKGF) (Homo sapiens)
Sequence: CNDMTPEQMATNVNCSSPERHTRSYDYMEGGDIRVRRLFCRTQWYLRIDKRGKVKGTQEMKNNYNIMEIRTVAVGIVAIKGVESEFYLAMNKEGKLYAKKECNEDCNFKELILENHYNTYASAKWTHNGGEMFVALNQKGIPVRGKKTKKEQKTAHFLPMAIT
Assay Procedure: FP
Assay Setup: 2'-F pyrimidines; method is nitrocellulose filter binding; DPBS, 37 C
Reported Property: Kd (nM)
Give the quantity in nM, number only.

Query: For GGGAGGACGAUGCGGGAAUUAACAGGGCCAGAAUUCUCAUCUNNCUUCCCGUGACCCAGACGACUCGCCCGA [12F] , what is its reported Kd?
Response: 1.38

====

Tested System: KGF (hKGF) (Homo sapiens)
Sequence: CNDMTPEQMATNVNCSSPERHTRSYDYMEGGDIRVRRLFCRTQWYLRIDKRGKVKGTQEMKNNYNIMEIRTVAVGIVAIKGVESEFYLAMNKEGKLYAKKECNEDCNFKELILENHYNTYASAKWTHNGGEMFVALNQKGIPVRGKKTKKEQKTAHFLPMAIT
Assay Procedure: competition
Assay Setup: 2'-F pyrimidines; PC-3 cells
IC50 for assorted sequences
Give the quantity in nM, number only.

INSERT INTO measurements (item_sequence, u, quantitative_result) VALUES
  ('GGGAGGACGAUGCGGGGACAAWYAGCGGUGUCUUUUCAUUUNKAUCCUCCGACRUCCCAGACGACUCGCCCGA [56F]', 'nM', 1);

We now examine a further sequence.
Query: For GGGAGGACGAUGCGGNGACUGAUUUUUCCUUGNCAGUGUAAUUUCCUGGCUGCCCCAGACGACUCGCCCGA [38F] , what is its reported IC50?
Response: 0.6

====

Tested System: KGF (hKGF) (Homo sapiens)
Sequence: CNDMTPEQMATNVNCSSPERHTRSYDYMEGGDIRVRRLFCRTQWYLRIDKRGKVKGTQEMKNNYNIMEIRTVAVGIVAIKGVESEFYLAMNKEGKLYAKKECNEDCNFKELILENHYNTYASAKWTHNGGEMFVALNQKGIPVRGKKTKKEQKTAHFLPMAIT
Assay Procedure: filter
Assay Setup: 2'-F pyrimidines; second column 0.94-2.57; DPBS, 37 C
Reported Property: pKd
When answering, recall that pKd equals minus log10 of the concentration in mol/L, and write that number alone.

Query: For GGGAGGACGAUGCGGCAANNNNNNNCUCUCUCCUGGCGUUCCGCAACCCGCCCCCAGACGACUCGCCCGA [19F] , what is its reported pKd?
Response: 8.80

====

Tested System: KGF (hKGF) (Homo sapiens)
Sequence: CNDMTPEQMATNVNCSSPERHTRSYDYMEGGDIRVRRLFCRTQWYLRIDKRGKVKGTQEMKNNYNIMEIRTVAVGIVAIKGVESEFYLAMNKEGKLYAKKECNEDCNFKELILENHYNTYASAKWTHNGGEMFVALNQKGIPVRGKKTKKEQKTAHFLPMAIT
Assay Procedure: competition
Assay Setup: 2'-F pyrimidines; PC-3 cells; 27.4 nM on NIH3T3/FGFR-2
Reported Property: Ki
Write the numeric value and append its unit.

Query: For GGGAGGACGAUGCGGGGACAAWYAGCGGUGUCUUUUCAUUUNKAUCCUCCGACRUCCCAGACGACUCGCCCGA [56F] , what is its reported Ki?
Response: 160 pM

====

Tested System: KGF (hKGF) (Homo sapiens)
Sequence: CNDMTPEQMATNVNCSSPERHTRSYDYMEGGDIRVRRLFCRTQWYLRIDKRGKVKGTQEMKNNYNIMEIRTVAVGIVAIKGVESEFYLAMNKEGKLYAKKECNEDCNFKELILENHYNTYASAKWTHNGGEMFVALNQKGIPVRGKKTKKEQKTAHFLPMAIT
Assay Procedure: filter
Assay Setup: 2'-F pyrimidines; DPBS, 37 C; PC-3 Ki 0.22 nM
Reported Property: pKd
When answering, recall that pKd equals minus log10 of the concentration in mol/L, and write that number alone.

Query: For GGGAGGACGAUGCGGNGACUGAUUUUUCCUUGNCAGUGUAAUUUCCUGGCUGCCCCAGACGACUCGCCCGA [38F] , what is its reported pKd?
Response: 9.48

====

Tested System: KGF (hKGF) (Homo sapiens) (UniProt P21781)
Sequence: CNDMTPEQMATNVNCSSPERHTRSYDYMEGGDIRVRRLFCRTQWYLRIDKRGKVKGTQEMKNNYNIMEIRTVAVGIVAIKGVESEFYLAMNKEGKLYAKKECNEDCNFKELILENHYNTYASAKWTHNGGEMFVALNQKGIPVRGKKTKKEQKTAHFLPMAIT
Assay Procedure: competition
Assay Setup: 2'-F pyrimidines; PC-3 cells; 20 nM on NIH3T3/FGFR-2
Reported Property: pKi
When answering, recall that pKi equals minus log10 of the concentration in mol/L, and write that number alone.

Query: For GGGAGGACGAUGCGGNGACUGAUUUUUCCUUGNCAGUGUAAUUUCCUGGCUGCCCCAGACGACUCGCCCGA [38F] , what is its reported pKi?
Response: 9.66

====

Tested System: KGF (hKGF) (Homo sapiens)
Sequence: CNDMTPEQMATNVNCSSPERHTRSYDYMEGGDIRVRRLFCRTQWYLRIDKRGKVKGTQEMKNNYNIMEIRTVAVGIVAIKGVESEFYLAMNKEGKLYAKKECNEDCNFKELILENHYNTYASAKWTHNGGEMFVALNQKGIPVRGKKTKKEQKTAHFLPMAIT
Assay Procedure: filter
Assay Setup: 2'-F pyrimidines; biphasic, high affinity 49%; Kd2 3.39 nM
Reported Property: Kd (nM)
Give the quantity in nM, number only.

Query: For GGGAGGACGAUGCGGGAAUUCCCAGCGCUUGACUGAUACAAACNUUCCCGUGCCCCAGACGACUCGCCCGA [16F] , what is its reported Kd?
Response: 0.83

====

Tested System: KGF (hKGF) (Homo sapiens)
Sequence: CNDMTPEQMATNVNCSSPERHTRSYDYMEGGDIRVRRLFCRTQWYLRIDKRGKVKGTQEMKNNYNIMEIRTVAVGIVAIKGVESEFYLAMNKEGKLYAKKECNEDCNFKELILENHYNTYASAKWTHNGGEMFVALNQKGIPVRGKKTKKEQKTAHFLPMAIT
Assay Procedure: filter
Assay Setup: 2'-F pyrimidines; random pool
Reported Property: Kd (nM)
Give the quantity in nM, number only.

Query: For GGGAGGACGAUGCGGNNNNNNNNNNNNNNNNNNNNNNNNNNNNNNNNNNNNNNNNCAGACGACUCGCCCGA [random 2'-F RNA 40N7] , what is its reported Kd?
Response: 30

====

Tested System: KGF (hKGF) (Homo sapiens)
Sequence: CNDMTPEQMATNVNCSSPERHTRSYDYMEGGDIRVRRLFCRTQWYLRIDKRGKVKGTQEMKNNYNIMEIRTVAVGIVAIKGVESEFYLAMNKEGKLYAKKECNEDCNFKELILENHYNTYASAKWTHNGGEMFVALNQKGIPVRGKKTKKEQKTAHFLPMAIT
Assay Procedure: filter
Assay Setup: 2'-F pyrimidines; DPBS, 37 C
Reported Property: pKd
When answering, recall that pKd equals minus log10 of the concentration in mol/L, and write that number alone.

Query: For GGGAGGACGAUGCGGAACGGAGAUGUCCCCUCAAMAUUUACCGUCUCCGUUUGCGCCCCAGACGACUCGCCCGA [31F] , what is its reported pKd?
Response: 9.00

Query: Same for GGGAGGACGAUGCGGUCGAGUGUUCUCCUUCGGUAACUAUUNNNNAUUUCGUGCCCAGACGACUCGCCCGA [44F]
Response: 8.88

Query: Same for GGGAGGACGAUGCGGCAGUCUCCCUAGGUUUCAUCUCUGCAGCAUUCCGGGGUNCCAGACGACUCGCCCGA [51F]
Response: 8.90

====

Tested System: KGF (hKGF) (Homo sapiens)
Sequence: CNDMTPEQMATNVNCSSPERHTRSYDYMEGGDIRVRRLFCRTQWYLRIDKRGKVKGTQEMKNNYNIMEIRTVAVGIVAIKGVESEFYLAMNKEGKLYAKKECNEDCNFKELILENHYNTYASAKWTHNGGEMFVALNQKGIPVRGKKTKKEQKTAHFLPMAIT
Assay Procedure: filter
Assay Setup: 2'-NH2 pyrimidines; random pool
Reported Property: Kd (nM)
Give the quantity in nM, number only.

Query: For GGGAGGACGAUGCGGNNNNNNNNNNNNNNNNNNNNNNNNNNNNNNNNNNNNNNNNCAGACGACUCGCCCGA [random 2'-NH2 RNA 40N7] , what is its reported Kd?
Response: 30

====

Tested System: PDGF-AB (Homo sapiens) (UniProt P04085+P01127)
Sequence (P01127 82-190, chain 2 of 2, other chains not shown): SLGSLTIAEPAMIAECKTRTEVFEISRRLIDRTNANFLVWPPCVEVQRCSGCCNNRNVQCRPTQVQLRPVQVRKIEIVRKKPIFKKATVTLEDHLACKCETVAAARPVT
Assay Procedure: filter
Assay Setup: 2'-F pyrimidines; +/-7; random pool
Reported Property: Kd (nM)
Give the quantity in nM, number only.

Query: For GGGAGACAAGAAUAACGCUCAANNNNNNNNNNNNNNNNNNNNNNNNNNNNNNNNNNNNNNNNNNNNNNNNNNUUCGACAGGAGGCUCACAACAGGC [random 2'-F RNA 50N] , what is its reported Kd?
Response: 35
